System: HI-HeLa cells
Method summary: Cytotoxicity in mock-infected HI-HeLa cells (XTT, antirhinoviral assay)
Assay type: cell-based
Run conditions: mock-infected HI-HeLa cells; line for HRV serotype 89; read-out: CC50
Procedure: In the Cell Protection Assay, the ability of compounds to protect cells against HRV infection was measured by the XTT dye reduction method. […] Infected or mock-infected cells were resuspended at 8×10^5 cells per mL and incubated with appropriate concentrations of compounds of formula I. Two days later, XTT/PMS was added to test plates, and the amount of formazan produced was quantified spectrophotometrically at 450/650 nm. […] The therapeutic index (TI) was calculated by dividing the CC50 by the EC50. […]
Item-by-item account of CC50

CCOC(=O)/C=C/C(CCC(N)=O)NC(=O)C(CC(=O)C(NC(=O)SC1CCCC1)C(C)C)Cc1ccc(F)cc1 (stereo not drawn): > 10 µM

Then there is this compound:
Can you look up the measured CC50 of CCOC(=O)/C=C/[C@H](CCC(N)=O)NC(=O)[C@@H](CC(=O)[C@@H](NC(=O)OC1CCCC1)C(C)C)Cc1ccc(F)cc1 for me?
> 3 µM

----------
Item-by-item account of CC50
Test system: HI-HeLa cells
Method summary: Cytotoxicity in mock-infected HI-HeLa cells (XTT, antirhinoviral assay)
Format: cell-based
Run conditions: mock-infected HI-HeLa cells; line for HRV serotype 39; read-out: CC50

Known CC50 results, listed for orientation:
CC(=O)N1CC/C(=C\C(CCC(N)=O)NC(=O)C(CC(=O)C(NC(=O)SC2CCCC2)C(C)C)Cc2ccc(C)cc2)C1=O (centres unmarked): > 10 µM
CCOC(=O)/C=C/C(CCC(N)=O)NC(=O)C(CC(=O)C(NC(=O)SC1CCCC1)C(C)C)Cc1ccccc1 (centres unmarked): > 10 µM
CCOC(=O)/C=C/C(CCC(N)=O)NC(=O)C(CC(=O)C(NC(=O)SC1CCCC1)C(C)C)Cc1ccc(C)cc1 (centres unmarked): > 3 µM
CCOC(=O)/C=C/C(CCC(N)=O)NC(=O)C(CC(=O)C(NC(=O)SC1CCCC1)C(C)(C)C)Cc1ccccc1 (centres unmarked): > 32 µM
CCOC(=O)/C=C/C(CCC(N)=O)NC(=O)C(CC(=O)C(NC(=O)SC1CCCC1)C(C)C)Cc1ccc(F)cc1 (centres unmarked): > 10 µM

Can you look up the measured CC50 of CCOC(=O)/C=C/C(CCC(N)=O)NC(=O)C(CC(=O)C(NC(=O)SC1CCCC1)C(C)C)Cc1ccc(C(F)(F)F)cc1 (centres unmarked) for me?
> 3 µM

How about this compound: CCOC(=O)/C=C/[C@H](CCC(N)=O)NC(=O)[C@@H](CC(=O)[C@@H](NC(=O)OC1CCCC1)C(C)C)Cc1ccc(F)cc1
> 3 µM

How about this compound: CCOC(=O)/C=C/C(CCC(N)=O)NC(=O)C(CC(=O)C(NC(=O)OC1CCCC1)C(C)C)Cc1ccc(C)cc1 (centres unmarked)
> 3 µM

----------
Test system: HI-HeLa cells
Method summary: Cytotoxicity in mock-infected HI-HeLa cells (XTT, antirhinoviral assay)
Assay type: cell-based
Run conditions: mock-infected HI-HeLa cells; line for HRV serotype 16; read-out: CC50
Value type: CC50

Can you look up the measured CC50 of CCOC(=O)/C=C/C(CCC(N)=O)NC(=O)C(CC(=O)C(NC(=O)OC1CCCC1)C(C)C)Cc1ccc(C)cc1 (stereo not drawn) for me?
> 3000 nM

How about this compound: CCOC(=O)/C=C/C(CCC(N)=O)NC(=O)C(CC(=O)C(NC(=O)SC1CCCC1)C(C)(C)C)Cc1ccccc1 (stereo not drawn)
> 32000 nM

How about this compound: CCOC(=O)/C=C/C(CCC(N)=O)NC(=O)C(CC(=O)C(NC(=O)SC1CCCC1)C(C)C)Cc1ccc(C(F)(F)F)cc1 (stereo not drawn)
> 3000 nM

How about this compound: CCOC(=O)/C=C/C(CCC(N)=O)NC(=O)C(CC(=O)C(NC(=O)SC1CCCC1)C(C)C)Cc1ccc(F)cc1 (stereo not drawn)
> 10000 nM

How about this compound: CCOC(=O)/C=C/[C@H](CCC(N)=O)NC(=O)[C@@H](CC(=O)[C@@H](NC(=O)OC1CCCC1)C(C)C)Cc1ccc(F)cc1
> 3000 nM

How about this compound: CCOC(=O)/C=C/C(CCC(N)=O)NC(=O)C(CC(=O)C(NC(=O)SC1CCCC1)C(C)C)Cc1ccc(C)cc1 (stereo not drawn)
> 3000 nM
